study system: FKBP12 (Homo sapiens)
Sequence (P62942 whole entry, species assumed): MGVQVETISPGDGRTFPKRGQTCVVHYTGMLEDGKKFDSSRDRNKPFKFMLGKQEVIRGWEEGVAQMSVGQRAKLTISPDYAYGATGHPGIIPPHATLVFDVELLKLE
method: Ki test procedure: inhibition of peptidyl-prolyl isomerase (rotamase) activity, chymotrypsin-coupled assay
Format: biochemical
pKi: −log10 of the molar value.
Please mark Satisfied if the recorded pKi is equal to or greater than 7, and Not satisfied if it falls below.

Enquiry: Check if pKi >= 7 (inclusive). Item: CCC(C)(C)C(=O)C(=O)N1CCC[C@H]1C(=O)SCCCc1cccc2ccccc12 [Compound 47]
Return: Satisfied

Enquiry: Check if pKi >= 7 (inclusive). Item: COc1ccc(CCCSC(=O)C2CCCCN2C(=O)C(=O)c2ccccc2)cc1 (stereo not drawn) [Compound 43]
Return: Not satisfied

Enquiry: Check if pKi >= 7 (inclusive). Item: CCC(C)(C)C(=O)C(=O)N1CCC[C@H]1C(=O)SCCCc1ccccc1F [Compound 57]
Return: Satisfied

Enquiry: Check if pKi >= 7 (inclusive). Item: CCC(C)(C)C(=O)C(=O)N1CCC[C@H]1C(=O)SCCCc1cccc(Cl)c1 [Compound 54]
Return: Satisfied

Enquiry: Check if pKi >= 7 (inclusive). Item: CC(C)(C)C(=O)C(=O)N1CCCCC1C(=O)SCCCc1ccccc1 (stereo not drawn) [Compound 29]
Return: Satisfied

Enquiry: Check if pKi >= 7 (inclusive). Item: CCC(C)(C)C(=O)C(=O)N1CCCCC1C(=O)SCCCCc1ccccc1 (stereo not drawn) [Compound 59]
Return: Not satisfied

Enquiry: Check if pKi >= 7 (inclusive). Item: CC(C)(C)C(=O)C(=O)N1CCCCC1C(=O)SCCCCc1ccccc1 (stereo not drawn) [Compound 39]
Return: Not satisfied

Enquiry: Check if pKi >= 7 (inclusive). Item: O=C(C(=O)N1CCC[C@H]1C(=O)SCCCCc1ccccc1)C1CCCCC1 [Compound 33]
Return: Not satisfied
